Recorded values, source PubChem BioAssay.

# test protocol: mitochondrial membrane potential change in A549 cells, profiling panel, cell-based, JC-1 fluorescence, basal, 24 h, 100 nL (AID 1138);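 further: A549 lung adenocarcinoma cells under basal conditions with no added stimulus; test concentration not given here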
# settings: higher = more signal
Returns the class for an entry based on its z-score. Class ranges: bottom range (below -0.2), center range (-0.2 to below 0.7), top range (0.7 or more)

CO[C@H]1COC(=O)[C@H](C)COC(=O)[C@@H](OCc2ccccc2)C=C[C@@H]1C | top range
CC(C)CON=C1C[C@@H](O)[C@@H](O)[C@@H]2[C@@H]3C(=O)N(Cc4ccc5c(c4)OCO5)C(=O)[C@@H]3CC[C@@H]12 | center range
CC(C)=CCCC(C)=CCON=C1C[C@@H](O)[C@@H](O)[C@@H]2[C@@H]3C(=O)N([C@@H](C)c4ccccc4)C(=O)[C@@H]3CC[C@@H]12 | bottom range
CCOC(=O)[C@H](CC(C)C)NC(=O)CCC1CC(OC(=O)NCc2ccc3c(c2)OCO3)CC2(CCCC(COC(=O)NCCc3ccc(Cl)cc3)O2)O1 (some centres undefined) | center range
CCOC(=O)[C@H](CC(C)C)NC(=O)CCC1CC(OC(=O)NCc2ccc3c(c2)OCO3)CC2(CCCC(COC(=O)NCCOC)O2)O1 (some centres undefined) | center range
C#CCCCON=C1C[C@@H](O)[C@@H](O)[C@@H]2[C@@H]3C(=O)N(CC)C(=O)[C@@H]3CC[C@H]12 | bottom range
C[C@@H]1CC[C@@H](C(=O)O)N[C@H]1c1cccc(N2CCOCC2)c1 | top range
C=CC[C@@H]1C=C[C@H](ON=C2C[C@@H](O)[C@@H](O)[C@@H]3[C@@H]4C(=O)N(CC)C(=O)[C@@H]4CC[C@@H]23)[C@@H](CO)O1 | bottom range

For the record `C#CCCCON=C1C[C@@H](O)[C@@H](O)[C@@H]2[C@@H]3C(=O)N(C[C@@H]4CCCO4)C(=O)[C@@H]3CC[C@H]12` , report the class its z-score corresponds to.
bottom range

For the record `CC(C)=CCCC(C)=CCON=C1C[C@@H](O)[C@@H](O)[C@@H]2[C@@H]3C(=O)N(C4CCCCC4)C(=O)[C@@H]3CC[C@H]12` , report the class its z-score corresponds to.
center range

For the record `Cc1ccc2[nH]c3nc(CCCn4ccnc4-c4ccccc4)nnc3c2c1` , report the class its z-score corresponds to.
center range

For the record `COc1cccc([C@H]2Oc3ccc(OC)cc3C(=NOCC[C@@H]3C=C[C@H](OC(C)=O)[C@@H](COC(C)=O)O3)[C@@H]2O)c1` , report the class its z-score corresponds to.
bottom range

For the record CC(CCC(=O)OC[C@H]1O[C@H](C#Cc2ccccc2)C=C[C@@H]1Oc1ccc(C)cc1)=NOC(C)CN1CCCCc2nc(C)c(C)cc21 (some centres undefined) , report the class its z-score corresponds to.
top range

For the record `C[C@@H]1CC[C@H]2C(=O)N3[C@@H](CC[C@@H](C)[C@@H]3c3ccc(Br)cc3)C(=O)N2[C@H]1c1ccc(Br)cc1` , report the class its z-score corresponds to.
top range

For the record `O=C1C=C[C@@H](O)[C@@H]2[C@@H]3C(=O)N(C4CCCCC4)C(=O)[C@@H]3CC[C@@H]12` , report the class its z-score corresponds to.
top range

For the record `CC(C)CN1CCc2nc(-c3ccccc3)c3c(c2C1)CO[C@@H](C)C3` , report the class its z-score corresponds to.
center range

For the record `CCN1C(=O)[C@H]2[C@H]3[C@H](O)[C@H](O)CC(=NOC[C@@H](O)[C@H]4O[C@@H]5OC(C)(C)O[C@@H]5[C@H]4O)[C@@H]3CC[C@H]2C1=O` , report the class its z-score corresponds to.
bottom range

For the record `C[C@@H]1CC[C@H]2C(=O)O[C@@H](COc3ccc(C(C)(C)C)cc3)CN2[C@H]1c1ccc(Br)cc1` , report the class its z-score corresponds to.
top range

For the record `C=CC[C@@H]1C=C[C@H](Oc2ccc(C)cc2)[C@@H](COC(=O)NCc2cccc3ccccc23)O1` , report the class its z-score corresponds to.
top range

For the record COC(=O)C(C(=O)OC)C1CCCC(=O)C1 (centres undefined) , report the class its z-score corresponds to.
bottom range
